Reported half-life values for a set of compounds
test: Rat pharmacokinetics, oral dosing; type: in vivo, Sprague-Dawley rats; settings: male, Sprague-Dawley, rat, plasma, po, 3 mg/kg, rat plasma, 3 mg/kg PO (0.6 mg/mL)
Field format: number, assumed h, no unit text.

Below, 3 compounds whose answers are already recorded.
compound: N#Cc1ccc(COc2cccc(C3CCN(Cc4nc5ccc(C(=O)O)cc5n4C[C@@H]4CCO4)CC3)n2)c(F)c1 [Reference Compound A, reference compound]
metric: half-life
recorded-number: 1.68
--
compound: [2H]C([2H])(Oc1cccc(C2CCN(Cc3nc4ccc(C(=O)O)cc4n3Cc3cncs3)CC2)n1)c1ccc(C#N)cc1F
metric: half-life
recorded-number: 1.37
--
compound: N#Cc1ccc(COc2cccc(C3CCN(Cc4nc5ccc(C(=O)O)cc5n4Cc4cncs4)CC3)n2)c(F)c1
metric: half-life
recorded-number: 2.66

Next item in the queue.
Briefly, half-life measured for "N#Cc1cnc(COc2cccc(C3CCN(Cc4nc5ccc(C(=O)O)cc5n4Cc4cncs4)CC3)n2)c(F)c1" : 1.54

* * *

molecular target: human GLP-1R receptor (Homo sapiens); assay: GLP-1R low expression cell assay (cAMP TR-FRET, CHO-K1_hGLP-1Rlow_clone10); settings: CHO-K1_hGLP-1Rlow_clone10 cells
Sequence (P43220 24-463): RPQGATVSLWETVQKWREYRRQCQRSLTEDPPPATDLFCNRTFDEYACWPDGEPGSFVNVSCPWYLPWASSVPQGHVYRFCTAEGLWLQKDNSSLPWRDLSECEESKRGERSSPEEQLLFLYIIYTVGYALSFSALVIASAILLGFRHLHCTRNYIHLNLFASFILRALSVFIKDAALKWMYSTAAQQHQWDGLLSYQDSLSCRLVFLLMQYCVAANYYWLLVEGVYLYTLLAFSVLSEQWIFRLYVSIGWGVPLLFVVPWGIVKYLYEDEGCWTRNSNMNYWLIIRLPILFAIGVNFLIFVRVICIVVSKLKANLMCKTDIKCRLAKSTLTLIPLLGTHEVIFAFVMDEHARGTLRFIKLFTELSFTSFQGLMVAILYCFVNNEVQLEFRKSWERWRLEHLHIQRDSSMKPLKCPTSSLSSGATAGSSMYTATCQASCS
pEC50: −log10 of the molar value.
# if value of pEC50 reaches 7, tag T; if it stays below, tag F

Look over these answered cases.
compound: CCc1scnc1Cn1c(CN2CCC(c3cccc(OCc4nc5c(F)cc(C#N)cc5s4)n3)CC2)nc2ccc(C(=O)O)cc21 [Compound 13]
assigned-class: F
//
compound: Cc1scnc1Cn1c(CN2CCC(c3cccc(OCc4nc5c(F)cc(C#N)cc5s4)n3)CC2)nc2ccc(C(=O)O)cc21 [Compound 11]
assigned-class: F
//
compound: N#Cc1ccc(COc2cccc(N3CCN(Cc4nc5ccc(C(=O)O)cc5n4Cc4cncs4)CC3)n2)c(F)c1 [Compound 30]
assigned-class: T
//
compound: O=C(O)c1ccc2nc(CN3CC[C@]4(c5nccc(OCc6ccc(Cl)cc6F)n5)C[C@@H]4C3)n(Cc3cncs3)c2c1 [Compound 21]
assigned-class: T

[ask] Does the reported pEC50 for CC1(c2ccc(C#N)cc2F)Oc2cccc(C3CCN(Cc4nc5ccc(C(=O)O)cc5n4Cc4cncs4)CC3)c2O1 (stereo not drawn) [Compound 31] fall at or above the 7 mark?
[reply] T

* * *

assay: Pharmacokinetics in hGLP-1R mice after oral dosing; assay type: in vivo, male C57BL/6J hGLP-1R mouse; conditions: male, C57BL/6J hGLP-1R, mouse, plasma, po, 1 mg/kg, hGLP-1R mouse plasma, PO 1 mg/kg, 1 h, individual animals; read-out: Concentration
metric: concentration at 1 h (ng/mL)
Quick note: give the figure in ng/mL, leave out the unit.

// sample "N#Cc1ccc(COc2cccc(C3CCN(Cc4nc5ccc(C(=O)O)cc5n4Cc4cncs4)CC3)n2)c(F)c1" , its concentration at 1 h was 252

* * *

efflux ratio at 120 min, 5 μM values, listed per item
assay: Caco-2 passive permeability and efflux ratio; assay type: in vitro ADME; conditions: human, pH 7.4; Caco-2, Papp (B-to-A)/Papp (A-to-B); read-out: Efflux Ratio (ER)

molecule: N#Cc1ccc(COc2cccc(C3CCN(Cc4nc5ccc(C(=O)O)cc5n4Cc4cncs4)CC3)n2)c(F)c1 [Compound 2]
result: 1.66

molecule: CC1(c2ccc(C#N)cc2F)Oc2cccc(C3CCN(Cc4nc5ccc(C(=O)O)cc5n4Cc4cncs4)CC3)c2O1 (centres unmarked) [Compound 31]
result: 1.31

molecule: N#Cc1ccc(COc2cccc(N3CCN(Cc4nc5ccc(C(=O)O)cc5n4Cc4cncs4)CC3)n2)c(F)c1 [Compound 30]
result: 2.14

molecule: Cc1ncsc1Cn1c(CN2CCC(c3cccc(OCc4ccc(C#N)cc4F)n3)CC2)nc2ccc(C(=O)O)cc21 [Compound 4]
result: 0.975

Let us move to another entry and its efflux ratio at 120 min, 5 μM.
Data point: N#Cc1ccc(COc2ccnc(C3CCN(Cc4nc5ccc(C(=O)O)cc5n4Cc4cncs4)CC3)n2)c(F)c1 [Compound 20] ; efflux ratio at 120 min, 5 μM = 9.77

* * *

assay: Pharmacokinetics in hGLP-1R mice after oral dosing; type: in vivo, male C57BL/6J hGLP-1R mouse; conditions: male, C57BL/6J hGLP-1R, mouse, plasma, po, 0.3 mg/kg, hGLP-1R mouse plasma, PO 0.3 mg/kg, individual mice; read-out: AUC0-last
metric: AUC(0-t) (ng·h/mL)
Hi! Could you send only the number? It should be in ng·h/mL, unit omitted.

Record "N#Cc1ccc(COc2cccc(C3CCN(Cc4nc5ccc(C(=O)O)cc5n4Cc4cncs4)CC3)n2)c(F)c1" . Reported AUC(0-t): 117

* * *

experiment: Pharmacokinetics in hGLP-1R mice after oral dosing; type: in vivo, male C57BL/6J hGLP-1R mouse; details: male, C57BL/6J hGLP-1R, mouse, plasma, po, 3 mg/kg, hGLP-1R mouse plasma collected at 120 min (IPGTT cohort), PO 3 mg/kg; read-out: Mean Concentration
metric: concentration at 120 min
Include the unit after the number when you answer.

The compound N#Cc1ccc(COc2cccc(C3CCN(Cc4nc5ccc(C(=O)O)cc5n4Cc4cncs4)CC3)n2)c(F)c1 [Compound 2] showed concentration at 120 min equal to 277 ng/mL

* * *

Test: Pharmacokinetics in hGLP-1R mice after oral dosing
Format: in vivo, male C57BL/6J hGLP-1R mouse
Details: male, C57BL/6J hGLP-1R, mouse, plasma, po, 0.3 mg/kg, hGLP-1R mice, total, PO 0.3 mg/kg; read-out: T1/2 (converted)
Procedure: IPGTT (120 min)—PK bleeding: 40 μL blood samples (all treatment groups) were collected from mice under the jaw at IPGTT-120 min after blood glucose measurement into pre-chilled EDTA-2K tubes. Blood samples were processed for plasma by centrifugation at 4° C., 3200×g for 10 min. […] The linear/log trapezoidal rule was applied in obtaining the PK parameters. Individual plasma concentration values that were below the lower limit of quantitation (LOQ) were excluded from the PK parameter calculation. […]
metric: half-life (h)
# value in h; strip the unit string

molecule: N#Cc1ccc(COc2cccc(C3CCN(Cc4nc5ccc(C(=O)O)cc5n4C[C@@H]4CCO4)CC3)n2)c(F)c1 [Reference Compound A, reference compound]
recorded-number: 0.604

Continue with the next molecule.
The reported value for N#Cc1ccc(COc2cccc(C3CCN(Cc4nc5ccc(C(=O)O)cc5n4Cc4cncs4)CC3)n2)c(F)c1 [Compound 2] in terms of half-life is 1.4

* * *

assay: Pharmacokinetics in hGLP-1R mice after oral dosing; format: in vivo, male C57BL/6J hGLP-1R mouse; settings: male, C57BL/6J hGLP-1R, mouse, plasma, po, 1 mg/kg, hGLP-1R mouse plasma, PO 1 mg/kg, 0.25 h; read-out: Mean Concentration
The entries below come with measured concentration at 0.25 h values attached.
I'd appreciate it if you included the unit after the number.

compound: N#Cc1ccc(COc2cccc(C3CCN(Cc4nc5ccc(C(=O)O)cc5n4Cc4cncs4)CC3)n2)c(F)c1
metric: concentration at 0.25 h
result: 251 ng/mL

Now examine the next entry.
Briefly, concentration at 0.25 h measured for N#Cc1ccc(COc2cccc(C3CCN(Cc4nc5ccc(C(=O)O)cc5n4C[C@@H]4CCO4)CC3)n2)c(F)c1 [Reference Compound A, reference compound] : 35.7 ng/mL

* * *

Experiment: Pharmacokinetics in hGLP-1R mice after oral dosing
Format: in vivo, male C57BL/6J hGLP-1R mouse
Settings: male, C57BL/6J hGLP-1R, mouse, plasma, po, 1 mg/kg, hGLP-1R mouse plasma, PO 1 mg/kg, 0.5 h, individual animals; read-out: Concentration
Procedure: IPGTT (120 min)—PK bleeding: 40 μL blood samples (all treatment groups) were collected from mice under the jaw at IPGTT-120 min after blood glucose measurement into pre-chilled EDTA-2K tubes. Blood samples were processed for plasma by centrifugation at 4° C., 3200×g for 10 min. […] The linear/log trapezoidal rule was applied in obtaining the PK parameters. Individual plasma concentration values that were below the lower limit of quantitation (LOQ) were excluded from the PK parameter calculation. […]
Measured concentration at 0.5 h, listed per entry.
Write the answer as a number in ng/mL, unit excluded.

compound: N#Cc1ccc(COc2cccc(C3CCN(Cc4nc5ccc(C(=O)O)cc5n4C[C@@H]4CCO4)CC3)n2)c(F)c1 [Reference Compound A, reference compound]
readout-unit: ng/mL
concentration at 0.5 h: 62.8

Next item in the queue.
Per the records, this compound ( N#Cc1ccc(COc2cccc(C3CCN(Cc4nc5ccc(C(=O)O)cc5n4Cc4cncs4)CC3)n2)c(F)c1 [Compound 2] ) has concentration at 0.5 h equal to 329

* * *

experiment: Pharmacokinetics in hGLP-1R mice after oral dosing; format: in vivo, male C57BL/6J hGLP-1R mouse; conditions: male, C57BL/6J hGLP-1R, mouse, plasma, po, 1 mg/kg, hGLP-1R mouse plasma, PO 1 mg/kg, 4 h; read-out: Mean Concentration
Recorded concentration at 4 h for the following compounds

compound: N#Cc1ccc(COc2cccc(C3CCN(Cc4nc5ccc(C(=O)O)cc5n4Cc4cncs4)CC3)n2)c(F)c1
metric: concentration at 4 h
result: 7.51 ng/mL

In the following, a different compound is considered.
// N#Cc1ccc(COc2cccc(C3CCN(Cc4nc5ccc(C(=O)O)cc5n4C[C@@H]4CCO4)CC3)n2)c(F)c1 [Reference Compound A, reference compound] : concentration at 4 h value = 3.4 ng/mL
